All figures here come from paper PMC9457736.

# testedOn: recombinant HIV-1 protease (wild type) (Human immunodeficiency virus type 1 group M subtype B)
# Construct: 8 μL of recombinant HIV-1 protease (wild type); purchased AnaSpec Inc
# assayText: FRET assay of HIV-1 protease inhibition
# Type: biochemical
# experimentalParameters: 1.0 mg/mL; n = 3; read-out: HIV-1 PR Inhibition (%) ± SD at 1.0 (mg/mL)
Parameter: inhibition at 1000 µg/mL. Scope: all listed entries.

COc1cc(O)cc2c1C(=O)C[C@@H](c1ccccc1)O2 ... > 50%
C[N+](C)(C)CC(=O)O ... 8.95%
C[C@@H]1O[C@@H](O[C@H]2C(=O)c3c(O)cc(O)cc3O[C@@H]2c2ccc(O)c(O)c2)[C@H](O)[C@H](O)[C@H]1O ... > 50%
O=C(O)[C@]1(O)C[C@@H](O)[C@@H](O)[C@H](O)C1 [Compound 2, D-(-)-Quinic acid] ... -20.1%
C[C@@H]1CC[C@H]2[C@@H](C)C(=O)O[C@@H]3O[C@@]4(C)CC[C@@H]1[C@]32OO4 ... > 50%
O=c1ccc2ccc(O)cc2o1 [Compound 6, 7-Hydroxycoumarine] ... 28.9%
O=C(O)c1ccc(O)c(O)c1 ... 47.9%

query: Could you share which inhibition at 1000 µg/mL value was measured for `COc1cc2ccc(=O)oc2c(OC)c1O` ?
result: -2.09%
